- Test system: Staphylococcus aureus MW2 (mecA+)
- Experiment notes: IC50 (growth, competition assay)
- Applied conditions: fluorescent label: DsRed; cefoxitin: subinhibitory
Structures can show the parent of a compound that is named as a salt.
Measurement kind: IC50

// below: answered molecules
# Molecule, Result
data = [
    ("CN(C)[C@@H]1C(O)=C(C(N)=O)C(=O)[C@@]2(O)C(O)=C3C(=O)c4c(O)ccc(Cl)c4[C@@H](O)[C@H]3C[C@@H]12", "< 9.85 µM"),
    ("CCOC(=O)C1=C(C)NC(C)=C(C(=O)OC)C1c1cccc(Cl)c1Cl (stereo unspecified) [Felodipine]", "27.8 µM"),
    ("CC[C@H](C)[C@H](N)C1=N[C@H](C(=O)N[C@@H](CC(C)C)C(=O)N[C@H](CCC(=O)[O-])C(=O)N[C@H](C(=O)N[C@H]2CCCCNC(=O)[C@H](CC(N)=O)NC(=O)[C@@H](CC(=O)[O-])NC(=O)[C@H](Cc3cnc[nH]3)NC(=O)[C@@H](Cc3ccccc3)NC(=O)[C@H]([C@@H](C)CC)NC(=O)[C@@H](CCCN)NC2=O)[C@@H](C)CC)CS1.[Zn+2]", "35.2 µM"),
    ("Clc1ccc(C(Cn2ccnc2)OCc2ccsc2Cl)c(Cl)c1 (stereo unspecified) [Tioconazole]", "29.7 µM"),
    ("CC(=O)OCC1=C(C(=O)O)N2C(=O)[C@@H](NC(=O)Cc3cccs3)[C@H]2SC1 [Cephalothin sodium]", "< 9.85 µM"),
]

Please examine the following record next.
For the molecule C[N+](C)(C)CC(O)CC(=O)[O-] (racemic) [DL-Carnitine hydrochloride] , what IC50 is on record?
> 150 µM
